Listed here: items and their measured kon.
# target-desc: T1, recombinant hAng-2 (C-His, R&D Systems) (human, UniProt O15123 19-496)
# T1 construct: Bought protein; also called human Ang-2 protein; C-terminal histidine-tagged human Ang2 (R&D Systems); not shown: C-terminal His tag
# T1 sequence: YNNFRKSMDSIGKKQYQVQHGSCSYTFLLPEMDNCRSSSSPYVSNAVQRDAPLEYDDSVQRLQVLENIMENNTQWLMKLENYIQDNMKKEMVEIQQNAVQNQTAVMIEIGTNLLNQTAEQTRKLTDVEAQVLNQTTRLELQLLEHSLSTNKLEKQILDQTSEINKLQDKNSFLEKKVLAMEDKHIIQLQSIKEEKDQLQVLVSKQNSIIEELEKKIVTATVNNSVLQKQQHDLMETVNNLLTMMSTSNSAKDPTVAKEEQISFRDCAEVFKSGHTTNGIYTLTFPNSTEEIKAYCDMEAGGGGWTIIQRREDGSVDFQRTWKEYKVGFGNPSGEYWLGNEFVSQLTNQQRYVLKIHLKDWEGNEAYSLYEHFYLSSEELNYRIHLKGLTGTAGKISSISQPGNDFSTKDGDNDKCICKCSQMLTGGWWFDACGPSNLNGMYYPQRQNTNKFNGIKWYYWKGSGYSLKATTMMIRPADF
# experimental-protocol: SPR, BIAcore T100; hAng2 (C-His) captured by anti-His antibody on CM5, antibody as analyte

| binder | kon |
| --- | --- |
| h10D6-OPTI-70 (antibody, human IgG1, V domains shown) VH: EVQLVESGGGLVQPGGSLRLSCAASGYSITSDYAWNWVRQAPGKGLEWMGKISYSGKTDYNPSLKSRSTISRDTSKNTFYLQMNSLRAEDTAVYYCARGNFEGAMDYWGQGTLVTVSS VL: DIQMTQSPSSLSASVGDRVTITCKASQSVSNDVAWYQQKPGKAPKLLIYYASIPYPGVPSRFSGSGSGTDFTLTISSLQPEDFATYYCQQDYSSPWTFGQGTKLEIK | 265000 M⁻¹ s⁻¹ |
| h10D6-OPTI-16 (antibody, human IgG1, V domains shown) VH: EVQLVESGGGLVQPGGSLRLSCAASGYSITSDYAWNWVRQAPGKGLEWMGKISYSGKTDYNPSLKSRSTISRDTSKNTFYLQMNSLRAEDTAVYYCARGNFEGAMDYWGQGTLVTVSS VL: DIQMTQSPSSLSASVGDRVTITCKASQSVSNDVHWYQQKPGKAPKLLIYYASNRYPGVPSRFSGSGSGTDFTLTISSLQPEDFATYYCQQDYSSPWTFGQGTKLEIK | 479000 M⁻¹ s⁻¹ |
| 10D6-HU5 (antibody, V domains shown, Humanized antibody; also called humanized antibody 10D6-HU5) VH: QVQLQESGPGLVKPSETLSLTCAVSGYSITSDYAWNWIRQPPGKGLEWIGYINYSGNTDYNPSLKSRVTISVDTSKNQFSLKLSSVTAADTAVYYCARGNFEGAMDYWGQGTLVTVSS VL: DIQMTQSPSSLSASVGDRVTITCKASQSVSNDVAWYQQKPGKAPKLLIYYASNRYPGVPSRFSGSGSGTDFTLTISSLQPEDFATYYCQQDYSSPWTFGQGTKLEIK | 48600 M⁻¹ s⁻¹ |
| h10D6-OPTI-2 (antibody, human IgG1, V domains shown) VH: QVQLQESGPGLVKPSETLSLTCAVSGYSITSDYAWNWIRQPPGKGLEWMGKINYAGNTDYNPSLKSRSTISRDTSKNQFSLKLSSVTAADTAVYYCARGNFEGAMDYWGQGTLVTVSS VL: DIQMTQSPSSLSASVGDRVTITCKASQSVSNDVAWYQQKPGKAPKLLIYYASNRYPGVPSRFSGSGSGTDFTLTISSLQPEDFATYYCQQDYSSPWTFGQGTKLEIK | 424000 M⁻¹ s⁻¹ |
